The measurements presented in this section are drawn from PubChem BioAssay (NCI).

- Tested on: OVCAR-3 ovarian
- assay.overview: NCI-60 one-dose screen, 48 h
- assay.setup: 10 µM unless noted
- Description: Growth inhibition of the OVCAR-3 human tumor cell line is measured as a screen for anti-cancer activity. Cells are grown in 96 well plates and exposed to the test compound for 48 hours. Compounds are tested at a single concentration, which is 10^-5 M for most compounds. The reported endpoint is percent growth (GI% or GIPRCNT), where numbers from 0 - 100% represent growth inhibition, and numbers from -100% - 0 represent cell death. For example, a value of 40 represents 60% growth inhibition. […]
This is part of a sample that, as a whole, favours compounds with a hit. Of some 83,000 tested, about 20% had one in any assay. The source made the active and inactive calls. Rule for the calls: active = growth percent below 10; inactive = the rest.
Outcome codes: label 1 = active, label 0 = inactive

compound	assigned.label
Cc1ccc2c(c1)C(C)Cc1c(ncnc1-n1cnc3cc(C)ccc31)N2C (configuration not stated)	label 0
COc1ccc(C/C(C)=C(/c2ccc(OCCN3CCCCCC3)cc2)c2ccc(OC(=O)c3ccccc3)cc2)cc1	label 0
Clc1nccc2c(-c3csc(-c4c[nH]c5ccc(Br)cc45)n3)c[nH]c12	label 0
Cc1ccc(-c2nc3nc(-c4ccccc4)nc(N4CCCNCC4)c3o2)cc1	label 1
Nc1ccc(/C=N/Nc2ccnc3c(N)cccc23)c2cccnc12	label 1
O=C(NNc1ccccc1)C1CCCN1 (configuration not stated)	label 0
O=C(/C=C/c1ccc(F)cc1)Nc1ncc(Cc2ccc(F)cc2)s1	label 0
Cc1nc2sc(C(=O)Nc3cccc4ncccc34)c(N)c2cc1C(C)O (configuration not stated)	label 0
Cc1ccc(C(=O)Nc2ccc(CN3CCN(C)CC3)c(C(F)(F)F)c2)cc1C#Cc1cnc(N)cc1C#N	label 1
COc1ccc(-c2cc(-c3cc(OC)c(OC)c(OC)c3)c(C#N)c(=O)n2CCCCC(=O)O)cc1	label 0
CC(C)(C)c1cc(C(C)(C)c2ccccc2)cc(Cc2cc(C(C)(C)c3ccccc3)cc(C(C)(C)C)c2O)c1O	label 0
COc1ccc(Cn2cc(C(=O)Nc3cccnc3Nc3ccccc3)nn2)cc1	label 0
Cc1ccc(NC(=O)c2sc3nc(C)c(C(=O)c4ccccc4)cc3c2N)cc1	label 0
Nc1ccc(-c2nc3ccc4[nH]ncc4c3c3c2CCCC3)cc1F	label 0
C[C@@H]1O[C@@H](O[C@H]2[C@@H](OC(=O)[C@]34CCC(C)(C)C[C@H]3C3=CC[C@@H]5[C@@]6(C)C[C@H](O)[C@H](O[C@@H]7O[C@H](CO)[C@@H](O)[C@H](O)[C@H]7O)[C@@](C)(CO)[C@@H]6CC[C@@]5(C)[C@]3(C)C[C@H]4O)OC[C@@H](O)[C@@H]2O)[C@H](O)[C@H](O[C@@H]2OC[C@@H](O)[C@H](O[C@@H]3OC[C@](O)(CO)[C@H]3O[C@@H]3OC[C@@H](O)[C@H](O)[C@H]3O)[C@H]2O)[C@H]1O[C@@H]1OC[C@](O)(CO)[C@H]1O	label 0
COC(=O)/C=C1/SC(N2N=C(c3cccs3)CC2c2ccc(F)cc2)=NC1=O (configuration not stated)	label 0
O=C1OCC2=C1C(c1cccc(C(F)(F)F)c1)c1cc3c(cc1N2CCO)CCC3 (configuration not stated)	label 1

* * *

- Tested on: LOX IMVI melanoma
- assay.overview: NCI-60 one-dose screen, 48 h
- assay.setup: 10 µM unless noted
The panel holds about 83,000 compounds, 20% with a hit somewhere; the sample as a whole holds those more often. Active and inactive are the calls of the source. The calls were made as follows: active = growth percent below 10; inactive = the rest.
Outcome codes: T = active, F = inactive

compound	target.under.test	assigned.label
C=C(CNCCO)[C@@H]1CC[C@]2(CO)CC[C@]3(C)[C@H](CC[C@@H]4[C@@]5(C)CCC(NCCc6ccc(O)cc6)C(C)(C)[C@@H]5CC[C@]43C)[C@@H]12 (stereo not given in full)	LOX IMVI melanoma	T
O=c1ccc2nc(-c3ccccn3)nn(-c3ccccc3)c-2c1	LOX IMVI melanoma	F
Cc1c(C(=O)OCCCCOC(=O)c2c(C)n(C)c3scc[n+]23)[n+]2ccsc2n1C	LOX IMVI melanoma	F
Cc1ccc(S(=O)(=O)Nc2cc(Sc3ccccc3)c(O)c3ccccc23)cc1	LOX IMVI melanoma	T
Cc1nc2cccc(NCCCCC(=O)NO)c2c(=O)n1-c1ccccc1	LOX IMVI melanoma	F
O=C1/C(=C/c2ccccc2)CN(C(=O)C(Cl)Cl)C/C1=C\c1ccccc1	LOX IMVI melanoma	T
Nn1c(-c2ccc(Cl)cc2)nc2c(-c3ccc(Cl)cc3)nc3ccc(Cl)cc3c2c1=O	LOX IMVI melanoma	F
CCCCCCCCCCCCC[C@H](O)C[C@H](O)[C@H](C)N	LOX IMVI melanoma	F
COc1ccc2c(c1)c(C(=O)c1nc(-c3cn(C)c4ccccc34)no1)cn2C	LOX IMVI melanoma	F
Cc1ccc(-c2nc3nc(-c4ccccc4)nc(N4CCN(S(=O)(=O)c5ccccc5)CC4)c3o2)cc1	LOX IMVI melanoma	F
CN(C)CCCn1c2nc(=O)[nH]c(=O)c-2nc2cc(Cl)c(Cl)cc21	LOX IMVI melanoma	F
COc1ccc2c(c1)oc1c(C)c3c(c(C)c12)C(=O)N(Nc1ccccc1)C3=O	LOX IMVI melanoma	F
COc1cccc(C2C(C#N)=C(N)Oc3cc(OCCCCCC[P+](c4ccccc4)(c4ccccc4)c4ccccc4)ccc32)c1 (stereo not given)	LOX IMVI melanoma	T
N=c1c2c(-c3ccccc3)c(-c3ccccc3)oc2ncn1NC(=O)c1cccnc1	LOX IMVI melanoma	F
N#CC1=C(N)Oc2c(sc3c(Br)cccc23)C1c1ccccn1 (stereo not given)	LOX IMVI melanoma	F
COc1cccc(NC(=O)c2sc3nc(C)c(C(O)c4ccccc4)cc3c2N)c1 (stereo not given)	LOX IMVI melanoma	F
COc1cc(-c2[nH]ncc2Nc2ccc(Cl)cc2)cc(OC)c1OC	LOX IMVI melanoma	F
N=C(N)SCc1c2ccccc2c(CSC(=N)N)c2ccccc12	LOX IMVI melanoma	F
CC(Sc1ccccc1)C(=O)O (stereo not given)	LOX IMVI melanoma	F
O=c1cc(N/N=C/c2ccc(F)cc2)c2cc(Cl)ccc2[nH]1	LOX IMVI melanoma	F

* * *

- Test system: DU-145 prostate
- assay.overview: NCI-60 one-dose screen, 48 h (100 = growth as untreated, 0 = no growth, -100 = all killed)
- assay.setup: 10 µM unless noted
The panel holds about 83,000 compounds, 20% with a hit somewhere; the sample as a whole holds those more often.
Outcome label depends on growth relative to 30%: at/above gives True, below gives False.

molecule	target.under.test	assigned.label
O=C1c2cc3c(cc2-c2c1c1ccc(Cl)cc1c(=O)n2CCCn1ccnc1)OCO3	DU-145 prostate	False
COc1ccc2c(c1)c(-c1nc(-c3c[nH]c4c(Cl)nccc34)cs1)cn2C	DU-145 prostate	True
O=C(NCc1ccc(Cn2c(=O)sn(-c3ccc(Cl)cc3)c2=O)cc1)OCc1ccc2c(Cl)cc(Cl)c(O)c2n1	DU-145 prostate	True
COc1ccc(S(=O)(=O)Nc2cc(Sc3cccc4cccnc34)c(O)c3ccccc23)cc1	DU-145 prostate	False
CCOC(=O)c1nnn(Cc2cc(=O)oc3c2ccc2ccccc23)c1C	DU-145 prostate	True
C=C1CC[C@@H]2[C@](C)(COC(C)=O)[C@H](OC(C)=O)CC[C@@]2(C)[C@@H]1CC(Nc1ccc(S(=O)(=O)Nc2nccs2)cc1)C1=CCOC1=O (some centres undefined)	DU-145 prostate	False
O=C(/C=C/c1ccc(F)cc1)Nc1ncc(Cc2ccc(F)cc2)s1	DU-145 prostate	True
Nc1nc(N)c2c(n1)NC(c1cccc(Nc3ccnc4cc(C(F)(F)F)ccc34)c1)CC(c1ccc(F)cc1)=N2 (centres undefined)	DU-145 prostate	True
CC(=O)c1c(C)nc2ccccc2c1/C=C/c1cccc(C)c1	DU-145 prostate	True

* * *

- Test system: BT-549 breast
- assay.overview: NCI-60 one-dose screen, 48 h
- assay.setup: 10 µM unless noted
Compounds without any hit were thinned out: in the full panel of roughly 83,000, 20% have a hit. Calls of active or inactive are those of the source. How the source made its calls: active means growth percent below 10; inactive means the rest.
Outcome codes: active, inactive

compound	target.under.test	assigned.label
Cn1cc(C2=C(c3cccc4ccccc34)C(=O)NC2=O)c2cc(Br)ccc21	BT-549 breast	inactive
Clc1cccc(Nc2ncnc3ccc(-c4cncc(-n5cnnn5)c4)cc23)c1	BT-549 breast	inactive
Nc1ccc(-c2ccc(N)c(Br)c2)cc1Br	BT-549 breast	inactive
C=C1C(=O)O[C@H]2[C@H]1CC/C(COC(=O)NCCCCNC(=O)OC/C1=C/CC[C@@]3(C)O[C@H]3[C@H]3OC(=O)C(=C)[C@@H]3CC1)=C\CC[C@@]1(C)O[C@@H]21	BT-549 breast	active
COC(=O)c1c2c(c(C)[n+]([O-])c1C)C(=O)C(NCCN1CCOCC1)=CC2=O	BT-549 breast	inactive
CCCNNC(=O)/C=C/c1ccc(CNCCc2c(C)[nH]c3ccccc23)cc1	BT-549 breast	inactive
O=C1/C(=C/c2ccc(F)c(F)c2)CN(C(=O)C(Cl)Cl)C/C1=C\c1ccc(F)c(F)c1	BT-549 breast	active
COc1ccc(/C(C)=C(\c2ccc(OCCN3CCOCC3)cc2)c2ccc(OC(=O)C3CCCCC3)cc2)cc1	BT-549 breast	inactive
c1ccc(-c2cc(-c3cc(-c4ccccc4)on3)no2)cc1	BT-549 breast	inactive
CCC(=C(c1ccc(OCCCN(C)C)cc1)c1ccc(OCCCN(C)C)cc1)c1ccc(Cl)cc1	BT-549 breast	active
CC(=O)OC[C@]12CCC(C)(C)C=C1[C@H]1CC[C@@H]3[C@@]4(C)CCCNC(C)(C)[C@@H]4CC[C@@]3(C)[C@]1(C)CC2	BT-549 breast	inactive
CCCCCCCCCCCCCCCCCCOc1cccc(CC(=O)OCC[N+](CC)(CC)CC)c1	BT-549 breast	inactive
Cc1c(C(C)(C)O)cn2ncnc(Oc3ccc(NC(=O)Nc4ccc(Cl)c(C(F)(F)F)c4)cc3)c12	BT-549 breast	inactive
O=C(Nc1ccc(F)cc1)c1cc2cc(Nc3nc(-c4ccccc4)nc4ccccc34)ccc2oc1=O	BT-549 breast	inactive
COc1ccc(/C=C2/C(=O)N=C3N2NC(c2ccccc2)=CN3c2ccccc2)cc1	BT-549 breast	inactive
COc1cc(-c2[nH]ncc2Nc2ccc(Cl)cc2)cc(OC)c1OC	BT-549 breast	inactive
CCN1C(=S)N(CC)C2C1NC(=S)N2/N=C/C=C/c1ccccc1 (centres undefined)	BT-549 breast	inactive
Nc1nc(Cl)nc2c1ncn2C1OC(CO)C(O)C1O (centres undefined)	BT-549 breast	inactive
Cc1c(CC(=O)OCCO)cc(-c2ccc(Cl)cc2)n1-c1ccccc1	BT-549 breast	inactive
